sequences and their reported phosphorylation enrichment
System: Fer (mouse)
Test Summary: phosphorylation enrichment, bacterial display (enrichment ratio); higher = better substrate or ligand; peptides without Tyr show the background;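 further: 11-residue human phosphosite peptides and single-mutation variants displayed on the E. coli surface, counted by deep sequencing, each peptide's frequency after selection divided by its frequency in the unselected input library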;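 further: frequency after pTyr selection over input frequency; kinase dosed for 20-30% of maximal phosphorylation in three min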
Number only, no unit.

INSERT INTO measurements (seq_text, endpoint_name, measured) VALUES
  ('RAIGYYSATSK [FAM120A_Y328]', 'phosphorylation enrichment', 0.563),
  ('QEIATYRRLLE [KRT14_Y415]', 'phosphorylation enrichment', 0.411),
  ('EEVKAYLDFRE [CHAC2_Y78]', 'phosphorylation enrichment', 0.651),
  ('KGEPQYSSHSS [SIPA1L3_Y1265]', 'phosphorylation enrichment', 0.45),
  ('NVSILYTASQA [CTNNA1_Y222_P219S]', 'phosphorylation enrichment', 0.629);

The value of phosphorylation enrichment measured for the sequence YQLENCCNGGG [INS_Y108_Y108C] turned out to be 0.535

// field: phosphorylation enrichment; key: INQGPYENRSV [ATP6V1B1_Y462] ; value = 0.4

Just so you know, measured phosphorylation enrichment for NFFDTCIKTCL [IQGAP2_Y1445_Y1445C_YF] came out at 0.45

For record ADRNHYRRFPR [YBX1_Y145_YF] the listed phosphorylation enrichment is 0.603

response.value for SHNKYYMLVAR [MFSD8_Y134] (field: phosphorylation enrichment) = 0.486

Notebook: KWRGQYDVAIR [BTK_Y425_K430R] , phosphorylation enrichment read as 0.512

Lookup result for SVSNNYIQTLG [CTNND1_Y174] ; measured phosphorylation enrichment: 0.451

Reported phosphorylation enrichment for ELTAKYLNFFR [P3H4_Y181_Q186R_YF] was 0.335

phosphorylation enrichment in this record for NNTFLYQLVFD [EXO1_Y284] : 4.67

Recorded phosphorylation enrichment (sequence RTLSEYARRHV [RERE_Y1259_P1262R] ): 0.404

phosphorylation enrichment for NPQKPYFIRLY [WAS_Y83_S82P] is 0.474

Recorded result, QSSALYEDHFL [ASS1_Y83_R86H_YF] , phosphorylation enrichment: 17.9

Measured phosphorylation enrichment, EPVSDYINANV [PTPN11_Y304_I309V] : 0.384

For record DEDYLYREELA [POR_Y575] the listed phosphorylation enrichment is 0.61

Lookup result for RSRQIYDAFIM [GRK3_Y109_YF] ; measured phosphorylation enrichment: 9.57

Short answer for PYGQWYESHYA [RPS8_Y113_R110G] : phosphorylation enrichment was 20.6

So for MTRDIYETDFF [INSR_Y1185_YF] , the logged phosphorylation enrichment turned out to be 1.15

Lab note: measured phosphorylation enrichment of PADSGYPAYLG [ATP6V1A_Y374] was 0.798

Reported phosphorylation enrichment of SAAAIYMVRHP [PMP22_Y117_T118M] : 0.53

Record RHLREYQDLLN [DES_Y388] , field phosphorylation enrichment: 0.533

---

Tested System: EPHB2 (UniProt P29323)
Sequence (P29323 whole entry, looked up): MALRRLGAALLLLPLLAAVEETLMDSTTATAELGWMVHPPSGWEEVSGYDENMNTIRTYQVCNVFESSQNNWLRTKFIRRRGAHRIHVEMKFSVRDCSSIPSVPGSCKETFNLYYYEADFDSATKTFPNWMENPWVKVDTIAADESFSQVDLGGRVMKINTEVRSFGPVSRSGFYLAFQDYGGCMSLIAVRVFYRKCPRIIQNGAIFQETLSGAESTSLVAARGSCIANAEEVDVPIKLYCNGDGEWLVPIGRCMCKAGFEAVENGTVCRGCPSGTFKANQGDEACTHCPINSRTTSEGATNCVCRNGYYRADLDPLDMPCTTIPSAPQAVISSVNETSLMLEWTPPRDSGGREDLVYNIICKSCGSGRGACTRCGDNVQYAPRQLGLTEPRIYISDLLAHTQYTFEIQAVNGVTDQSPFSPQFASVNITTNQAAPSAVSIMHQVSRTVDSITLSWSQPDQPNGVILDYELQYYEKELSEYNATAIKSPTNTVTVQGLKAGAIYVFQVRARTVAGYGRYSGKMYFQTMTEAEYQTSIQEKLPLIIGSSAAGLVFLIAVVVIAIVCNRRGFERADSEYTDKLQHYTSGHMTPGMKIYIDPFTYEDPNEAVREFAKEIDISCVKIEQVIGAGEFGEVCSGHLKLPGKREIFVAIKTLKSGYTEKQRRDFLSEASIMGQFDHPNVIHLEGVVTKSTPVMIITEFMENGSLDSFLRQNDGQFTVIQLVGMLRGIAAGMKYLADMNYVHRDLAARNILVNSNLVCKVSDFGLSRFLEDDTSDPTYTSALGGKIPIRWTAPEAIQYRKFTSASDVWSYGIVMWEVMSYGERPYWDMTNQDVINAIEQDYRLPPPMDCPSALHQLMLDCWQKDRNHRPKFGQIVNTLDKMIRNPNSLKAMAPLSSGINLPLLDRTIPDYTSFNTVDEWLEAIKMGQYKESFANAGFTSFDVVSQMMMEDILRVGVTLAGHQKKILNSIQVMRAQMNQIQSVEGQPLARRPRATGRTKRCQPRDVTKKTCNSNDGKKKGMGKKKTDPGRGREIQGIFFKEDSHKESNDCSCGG
Test Summary: phosphorylation enrichment, bacterial display (enrichment ratio); higher = better substrate or ligand; peptides without Tyr show the background
Please mark Criterion met if the recorded phosphorylation enrichment is equal to or greater than 0.6, and Criterion not met if it falls below.

INSERT INTO assay_data (seq_text, qualitative_label) VALUES
  ('QYQEKYKQVEQ [HCN4_Y531]', 'Criterion met'),
  ('CTTIQYNFMCN [TP53_Y234_H233Q_YF]', 'Criterion not met'),
  ('EEVGIYRMSGV [BCR_Y1089_V1091M]', 'Criterion not met'),
  ('TIQRMYGCDVG [HLA-A_Y123_I121R]', 'Criterion not met');

Here's the next entry for you.
Test whether the sequence CTTVHYNFMCN [TP53_Y234_I232V_YF] records phosphorylation enrichment of 0.6 or higher.
Criterion not met

---

System: AncSZ
Test Summary: phosphorylation enrichment, bacterial display (enrichment ratio); higher = better substrate or ligand; peptides without Tyr show the background
Tag: class 1 if measured phosphorylation enrichment is not below 1, class 0 if it is.

INSERT INTO assay_data (seq_text, qualitative_label) VALUES
  ('RQSTLYSFFPT [MSH6_Y8_K13T]', 'class 1'),
  ('SFCFRYRCAPR [SUMF1_Y344_A348P_YF]', 'class 0'),
  ('EKMWTYMRSAE [GRIA4_Y695]', 'class 1'),
  ('FDKEFYSVHNK [MET_Y1235_YF]', 'class 0'),
  ('TDVSLYPSGGT [TENM4_Y399]', 'class 0');

Please find the next sequence below.
hey, is phosphorylation enrichment for this one >= 1? QCTSAHPLQPE [NANS_Y188_Y188H]
class 1

---

Tested System: Fes (UniProt P07332)
Sequence (P07332 whole entry, looked up): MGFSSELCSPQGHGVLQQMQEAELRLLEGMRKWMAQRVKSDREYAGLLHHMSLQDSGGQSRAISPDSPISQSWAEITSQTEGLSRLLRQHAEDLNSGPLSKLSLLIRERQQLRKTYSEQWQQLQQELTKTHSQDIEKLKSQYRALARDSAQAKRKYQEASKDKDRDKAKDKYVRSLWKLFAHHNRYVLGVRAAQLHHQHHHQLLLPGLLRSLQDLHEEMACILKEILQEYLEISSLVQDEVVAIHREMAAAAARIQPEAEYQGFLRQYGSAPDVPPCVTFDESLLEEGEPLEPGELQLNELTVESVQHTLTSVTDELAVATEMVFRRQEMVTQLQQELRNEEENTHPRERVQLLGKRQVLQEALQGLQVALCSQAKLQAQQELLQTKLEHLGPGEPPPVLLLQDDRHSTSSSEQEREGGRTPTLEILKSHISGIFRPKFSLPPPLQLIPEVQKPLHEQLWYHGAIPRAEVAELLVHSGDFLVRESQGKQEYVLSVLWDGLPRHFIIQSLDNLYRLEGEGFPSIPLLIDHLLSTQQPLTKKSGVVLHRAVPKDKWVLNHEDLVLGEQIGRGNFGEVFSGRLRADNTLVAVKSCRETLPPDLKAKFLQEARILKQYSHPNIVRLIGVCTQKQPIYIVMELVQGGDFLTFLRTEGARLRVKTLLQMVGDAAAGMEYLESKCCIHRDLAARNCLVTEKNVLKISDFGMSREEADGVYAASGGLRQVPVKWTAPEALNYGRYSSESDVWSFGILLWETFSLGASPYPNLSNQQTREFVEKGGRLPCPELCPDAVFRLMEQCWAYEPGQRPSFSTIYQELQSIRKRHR
Test Summary: phosphorylation enrichment, bacterial display (enrichment ratio); higher = better substrate or ligand; peptides without Tyr show the background
phosphorylation enrichment: recorded values
// response body must contain only the number

INSERT INTO assay_data (seq_text, endpoint_name, measured) VALUES
  ('IGEGTYRQVFK [CDK13_Y716_G717R_YF]', 'phosphorylation enrichment', 0.973),
  ('LGGAMYYLEAE [PKHD1_Y452]', 'phosphorylation enrichment', 1.61),
  ('RLPSGYGLAYR [DLK1_Y262]', 'phosphorylation enrichment', 0.61),
  ('AGLEDYDRLRP [RAC3_Y64_Q61L]', 'phosphorylation enrichment', 0.933),
  ('DVLVEYQGEGR [GNS_Y416]', 'phosphorylation enrichment', 1.08),
  ('TRSFDYTEGGD [FGF7_Y58_M59T_YF]', 'phosphorylation enrichment', 1.19),
  ('EPVSDYINANV [PTPN11_Y304_I309V]', 'phosphorylation enrichment', 0.855),
  ('RVGVDYEGRGC [PLOD1_Y675_G678R]', 'phosphorylation enrichment', 1.02),
  ('FENGEYIVRQG [PRKG1_Y247_I249V_YF]', 'phosphorylation enrichment', 0.962),
  ('TSESSYFKSLN [NGEF_Y288_A286S_YF]', 'phosphorylation enrichment', 0.91);

Form: sequence = TWNPKYTLRSH [STRN3_Y474] ; phosphorylation enrichment = 0.74

Data point: QISSNYDDAMQ [ZNF281_Y531] ; phosphorylation enrichment = 0.978

Reported phosphorylation enrichment for SLDLSYFPTSS [EMD_Y181_YF] was 0.793

---

Tested System: Fyn (UniProt P06241)
Sequence (P06241 whole entry, looked up): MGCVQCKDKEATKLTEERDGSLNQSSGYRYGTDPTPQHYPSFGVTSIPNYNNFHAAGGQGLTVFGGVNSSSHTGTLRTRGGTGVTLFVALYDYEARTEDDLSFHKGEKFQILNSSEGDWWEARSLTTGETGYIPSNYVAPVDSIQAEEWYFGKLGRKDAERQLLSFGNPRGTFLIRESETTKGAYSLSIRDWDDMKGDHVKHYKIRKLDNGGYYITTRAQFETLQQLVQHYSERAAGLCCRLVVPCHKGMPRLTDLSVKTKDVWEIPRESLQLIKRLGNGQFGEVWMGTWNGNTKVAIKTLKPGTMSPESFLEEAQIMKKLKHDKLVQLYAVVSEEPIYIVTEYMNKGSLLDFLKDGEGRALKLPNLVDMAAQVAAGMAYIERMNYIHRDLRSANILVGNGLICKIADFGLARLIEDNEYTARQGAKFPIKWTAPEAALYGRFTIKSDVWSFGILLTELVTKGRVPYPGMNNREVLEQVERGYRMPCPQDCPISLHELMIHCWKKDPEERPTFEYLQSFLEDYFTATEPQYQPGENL
Test Summary: phosphorylation enrichment, bacterial display (enrichment ratio); higher = better substrate or ligand; peptides without Tyr show the background
Endpoint Name: phosphorylation enrichment
Lab note: record just the number, no unit beside it.

Below: 4 sequences and their reported phosphorylation enrichment.
INSERT INTO measurements (seq_text, endpoint_name, measured) VALUES
  ('GSERDYTYEEL [EIF2S2_Y174]', 'phosphorylation enrichment', 1.09),
  ('LKKKQYTSIHH [APP_Y728]', 'phosphorylation enrichment', 0.92),
  ('AYGNLYGSRKQ [YIPF7_Y59]', 'phosphorylation enrichment', 1.38),
  ('RHYVYYYSYLL [PTEN_Y177_R173H]', 'phosphorylation enrichment', 1.59);

Notebook: RGEAVYSRDCV [XPC_Y676] , phosphorylation enrichment read as 2.95

phosphorylation enrichment for VDSGVYAVPPP [BCAR1_Y410] is 8.7

phosphorylation enrichment reading for HTDDGYMPMSP [IRS1_Y612] : 0.839

Entry EFLQKYKGFKI [SYNE1_Y6953_YF] — recorded phosphorylation enrichment = 0.376

Measured phosphorylation enrichment of LMLVLYGRIFL [HTR1A_Y215_R220L] : 0.433

response.value for ANNPLYKEVTS [ITGB3_Y773_A776V] (field: phosphorylation enrichment) = 0.428

phosphorylation enrichment measured on ESMNTYLQTSP [NAT1_Y208] = 0.469

Value of phosphorylation enrichment reported for the sequence QISSNYDDAMQ [ZNF281_Y531] is 0.348

Notebook: TVHCDYLNISH [TAF1L_Y1385_P1389S] , phosphorylation enrichment read as 0.451

What the record says about FEEVVYQAMEE [TACC3_Y684] : phosphorylation enrichment is 2.12

// recorded phosphorylation enrichment for GVRLYYRVMES [RB1_Y454] : 0.438

Lab note: ENELTYFCCKK [CD59_Y86_YF] gave phosphorylation enrichment of 1.08

---

System: c-Abl (mouse)
Test Summary: phosphorylation enrichment, bacterial display (enrichment ratio); higher = better substrate or ligand; peptides without Tyr show the background
Endpoint Name: phosphorylation enrichment
The reply should be a number, written without any unit.

INSERT INTO results (seq_text, tested_system, endpoint_name, measured) VALUES
  ('IEELTYIIKQD [STX5_Y137]', 'c-Abl (mouse)', 'phosphorylation enrichment', 0.801),
  ('SEDSEYFKAFE [CASQ2_Y178_YF]', 'c-Abl (mouse)', 'phosphorylation enrichment', 0.974),
  ('FSVDGYDSSVR [KCNQ1_Y461]', 'c-Abl (mouse)', 'phosphorylation enrichment', 0.648),
  ('EFNLMYDGAKE [IRF6_Y97_T100A]', 'c-Abl (mouse)', 'phosphorylation enrichment', 0.857),
  ('ENELTYFCCKK [CD59_Y86_YF]', 'c-Abl (mouse)', 'phosphorylation enrichment', 0.737);

response.value for FSQETYYRVSN [ABCD1_Y180_Q178E] (field: phosphorylation enrichment) = 1.03

The reported value for LPKDLYLISQM [LARP4_Y141_S137P] in terms of phosphorylation enrichment is 1.2

Value of measured phosphorylation enrichment for the entry PEADKYRLTYA [FGG_Y300] : 0.825

Reported phosphorylation enrichment ( PIAPVYAPSMV [ACAT1_Y331_A333P] ) = 49.8

The sequence listed as SISFDYCRVPM [BST2_Y8_T4I_YF] shows phosphorylation enrichment equal to 0.785

// phosphorylation enrichment value for PGPPGYCDSSQ [COL12A1_Y3043] : 0.707

Note to self: phosphorylation enrichment recorded for KQELVYPNKKL [OPTN_Y356_T357P] was 0.561

phosphorylation enrichment in this record for KAIMIYVSSFF [ACTN4_Y260_T259I_YF] : 0.684

Form: sequence = ADIETYLLEKS [MYH7_Y266] ; phosphorylation enrichment = 0.746

phosphorylation enrichment recorded for this sequence, MSPPGYKLVTG [GJA1_Y286] , is 0.485

In plain terms, MASTSYDFCRV [BST2_Y6_YF] has a documented phosphorylation enrichment of 0.622

Briefly, phosphorylation enrichment measured for STEAIYWRYSK [SH3PXD2B_Y42_R43W] : 8.71
